The measured values listed here are drawn from the supplement of paper PMC10567573.

B1: MAGEA6 (parent)
chain: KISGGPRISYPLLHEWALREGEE

Variants of: B1
Test: protein stability index of a GFP-peptide fusion (GPS, HEK-293T) (PSI 1-6); higher = more stable;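 further: lentivirally expressed fusions sorted by FACS into six bins by GFP to DsRed ratio, PSI derived from sequencing read proportions per bin multiplied by bin number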
Settings: c terminus: native
quantity_measured: protein stability index
Keep the answer to the number alone.

INSERT INTO assay_data (variant_notation, quantity_measured, endpoint_result) VALUES
  ('P11Q', 'protein stability index', 2.63);

Inquiry: Looking for the measured protein stability index of W16H , can you help?
Reply text: 2.26

Inquiry: Same for I8P
Reply text: 2.24

Inquiry: Same for E23C
Reply text: 1.64

Inquiry: Same for G4T
Reply text: 4.54
